# study_target: PRMT5/MEP50 (Homo sapiens, UniProt O14744)
# Construct: Flag-PRMT5; made in house; host or cells: Spodoptera frugiperda (SF9), baculovirus
# Sequence (O14744 with tags, fused parts or gaps): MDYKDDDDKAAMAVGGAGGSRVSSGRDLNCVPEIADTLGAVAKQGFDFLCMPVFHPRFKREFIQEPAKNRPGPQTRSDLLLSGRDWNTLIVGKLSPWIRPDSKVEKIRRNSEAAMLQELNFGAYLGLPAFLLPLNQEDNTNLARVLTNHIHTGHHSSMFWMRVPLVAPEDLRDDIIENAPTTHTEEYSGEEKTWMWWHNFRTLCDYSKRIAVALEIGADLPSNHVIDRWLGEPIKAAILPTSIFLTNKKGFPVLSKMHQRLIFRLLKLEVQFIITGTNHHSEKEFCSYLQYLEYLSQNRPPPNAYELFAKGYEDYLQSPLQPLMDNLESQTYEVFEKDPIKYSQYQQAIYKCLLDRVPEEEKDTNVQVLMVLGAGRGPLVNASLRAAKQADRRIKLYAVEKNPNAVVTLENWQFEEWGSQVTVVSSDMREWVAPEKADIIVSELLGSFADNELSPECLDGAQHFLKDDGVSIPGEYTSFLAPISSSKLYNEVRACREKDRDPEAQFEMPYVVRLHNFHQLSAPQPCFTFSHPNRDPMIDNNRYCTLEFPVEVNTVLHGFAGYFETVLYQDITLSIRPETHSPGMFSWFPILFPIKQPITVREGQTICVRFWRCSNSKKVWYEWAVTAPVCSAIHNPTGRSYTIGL
# Sequence (Q9BQA1 with tags, fused parts or gaps partner limits assumed): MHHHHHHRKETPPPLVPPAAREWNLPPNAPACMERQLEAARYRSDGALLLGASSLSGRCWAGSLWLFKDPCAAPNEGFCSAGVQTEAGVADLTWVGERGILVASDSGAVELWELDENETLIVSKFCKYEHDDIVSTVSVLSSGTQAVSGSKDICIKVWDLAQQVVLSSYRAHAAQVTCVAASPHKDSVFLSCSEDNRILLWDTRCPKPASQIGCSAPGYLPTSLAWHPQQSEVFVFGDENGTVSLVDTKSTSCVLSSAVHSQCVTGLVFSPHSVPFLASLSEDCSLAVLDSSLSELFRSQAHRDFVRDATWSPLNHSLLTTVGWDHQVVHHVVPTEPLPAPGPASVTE
# test_description: PRMT5 Biochemical Assay (PRMT5/MEP50 enzyme assay on histone H4 peptide substrate, 3H-SAM Flashplate)
# measurement_conditions: PRMT5 biochemical assay; read-out: Biochemical IC50
# IC50 per record follows

Q) Give its IC50 value. Item: O=C(NC[C@H](O)CN1Cc2ccccc2C1)c1cc(NC2CNC2)ncn1
A) 101 to 1000 nM

Q) Give its IC50 value. Item: Cc1cn(Cc2ccccc2)c(CN)n1
A) 101 to 1000 nM

Q) Give its IC50 value. Item: CN(CCNC1CCCCC1)C[C@H]1O[C@@H](n2cnc3c(N)ncnc32)[C@H](O)[C@@H]1O
A) < 100 nM

Q) Give its IC50 value. Item: CN(CCO)CCN(C)C[C@H]1O[C@@H](n2cnc3c(N)ncnc32)[C@H](O)[C@@H]1O
A) 101 to 1000 nM

Q) Give its IC50 value. Item: Cc1ccc(NC(=O)CC2NC(N3CCc4ccccc4C3)=NC2=O)cc1 (centres unmarked)
A) 1000 to 10000 nM
